The reader will find reported PBM E-score values listed item by item below.
Biological target: Pdr3 (UniProt P33200)
Sequence: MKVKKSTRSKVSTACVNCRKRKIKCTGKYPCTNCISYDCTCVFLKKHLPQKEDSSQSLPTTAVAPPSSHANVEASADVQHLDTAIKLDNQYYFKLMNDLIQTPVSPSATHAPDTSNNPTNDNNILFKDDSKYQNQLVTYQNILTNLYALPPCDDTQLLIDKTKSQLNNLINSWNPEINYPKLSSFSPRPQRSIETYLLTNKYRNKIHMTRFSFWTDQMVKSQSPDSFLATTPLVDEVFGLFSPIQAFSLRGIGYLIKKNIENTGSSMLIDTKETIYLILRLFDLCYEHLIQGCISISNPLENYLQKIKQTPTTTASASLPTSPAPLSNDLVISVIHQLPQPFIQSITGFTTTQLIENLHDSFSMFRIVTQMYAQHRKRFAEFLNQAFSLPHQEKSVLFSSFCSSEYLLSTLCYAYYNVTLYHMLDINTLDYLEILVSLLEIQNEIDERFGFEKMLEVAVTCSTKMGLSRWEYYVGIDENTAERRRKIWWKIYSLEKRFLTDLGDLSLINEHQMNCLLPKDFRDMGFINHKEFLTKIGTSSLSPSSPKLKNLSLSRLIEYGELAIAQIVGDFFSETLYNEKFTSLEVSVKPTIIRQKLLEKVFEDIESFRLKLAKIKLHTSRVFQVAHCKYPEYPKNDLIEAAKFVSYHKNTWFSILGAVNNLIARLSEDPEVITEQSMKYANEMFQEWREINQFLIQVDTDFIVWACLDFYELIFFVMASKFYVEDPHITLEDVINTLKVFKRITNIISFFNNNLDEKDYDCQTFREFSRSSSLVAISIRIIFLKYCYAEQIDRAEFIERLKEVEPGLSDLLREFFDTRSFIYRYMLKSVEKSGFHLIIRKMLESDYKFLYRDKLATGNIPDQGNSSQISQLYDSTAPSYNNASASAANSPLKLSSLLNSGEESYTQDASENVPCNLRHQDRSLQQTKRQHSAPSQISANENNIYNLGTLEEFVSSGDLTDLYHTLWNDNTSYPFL
Assay: PBM E-score (8-mer binding enrichment) (E-score (-0.5 to 0.5)); higher = stronger / more preferred TF binding
Conditions: protein concentration: 200 nM; construct: GST-full length
The full ranking holds about 33,000 sequences; the median of “E-score (-0.5 to 0.5)” is about -0.035, and the highest 2% start at about 0.35. For the sample, the highest values were picked, then their nearest neighbours and some sequences at random.
Note: the reply should be a number with no unit written.

Completed entries (count: 5):
In [3]: df
Out[3]:
      chain  quantitative_readout
0  AGGCGGAC                 0.211
1  AGGCGGAA                  0.35
2  ACACGGAA                 0.438
3  GCCGGAGA                 0.244
4  CCAAGAGG                -0.122

Data request: Which PBM E-score is listed for "CGGCCTAC" ?
Data returned: 0.158

Data request: Which PBM E-score is listed for "AGCTCCGG" ?
Data returned: 0.389

Data request: Which PBM E-score is listed for "ATCCCCGA" ?
Data returned: 0.303

Data request: Which PBM E-score is listed for "AATGCCGA" ?
Data returned: 0.219

Data request: Which PBM E-score is listed for "AACTCCGT" ?
Data returned: 0.271

Data request: Which PBM E-score is listed for "ACACGGAG" ?
Data returned: 0.284

Data request: Which PBM E-score is listed for "ACTAGGGA" ?
Data returned: -0.253

Data request: Which PBM E-score is listed for "CTACTTAC" ?
Data returned: -0.312

Data request: Which PBM E-score is listed for "CTCCCCGC" ?
Data returned: 0.34

Data request: Which PBM E-score is listed for "TGAACGAA" ?
Data returned: -0.195

Data request: Which PBM E-score is listed for "GTCCTCTA" ?
Data returned: -0.222

Data request: Which PBM E-score is listed for "CACTCCGG" ?
Data returned: 0.351

Data request: Which PBM E-score is listed for "ATCTGATA" ?
Data returned: -0.18

Data request: Which PBM E-score is listed for "ACCGGACG" ?
Data returned: 0.311

Data request: Which PBM E-score is listed for "AGCTCCGC" ?
Data returned: 0.287

Data request: Which PBM E-score is listed for "CTCCCGGC" ?
Data returned: 0.368

Data request: Which PBM E-score is listed for "ACCGGACC" ?
Data returned: 0.297

Data request: Which PBM E-score is listed for "ACACGGAT" ?
Data returned: 0.302

Data request: Which PBM E-score is listed for "TCCGGAGA" ?
Data returned: 0.44

Data request: Which PBM E-score is listed for "ACCGGATC" ?
Data returned: 0.34

----------
Biological target: Pdr3 (UniProt P33200)
Sequence: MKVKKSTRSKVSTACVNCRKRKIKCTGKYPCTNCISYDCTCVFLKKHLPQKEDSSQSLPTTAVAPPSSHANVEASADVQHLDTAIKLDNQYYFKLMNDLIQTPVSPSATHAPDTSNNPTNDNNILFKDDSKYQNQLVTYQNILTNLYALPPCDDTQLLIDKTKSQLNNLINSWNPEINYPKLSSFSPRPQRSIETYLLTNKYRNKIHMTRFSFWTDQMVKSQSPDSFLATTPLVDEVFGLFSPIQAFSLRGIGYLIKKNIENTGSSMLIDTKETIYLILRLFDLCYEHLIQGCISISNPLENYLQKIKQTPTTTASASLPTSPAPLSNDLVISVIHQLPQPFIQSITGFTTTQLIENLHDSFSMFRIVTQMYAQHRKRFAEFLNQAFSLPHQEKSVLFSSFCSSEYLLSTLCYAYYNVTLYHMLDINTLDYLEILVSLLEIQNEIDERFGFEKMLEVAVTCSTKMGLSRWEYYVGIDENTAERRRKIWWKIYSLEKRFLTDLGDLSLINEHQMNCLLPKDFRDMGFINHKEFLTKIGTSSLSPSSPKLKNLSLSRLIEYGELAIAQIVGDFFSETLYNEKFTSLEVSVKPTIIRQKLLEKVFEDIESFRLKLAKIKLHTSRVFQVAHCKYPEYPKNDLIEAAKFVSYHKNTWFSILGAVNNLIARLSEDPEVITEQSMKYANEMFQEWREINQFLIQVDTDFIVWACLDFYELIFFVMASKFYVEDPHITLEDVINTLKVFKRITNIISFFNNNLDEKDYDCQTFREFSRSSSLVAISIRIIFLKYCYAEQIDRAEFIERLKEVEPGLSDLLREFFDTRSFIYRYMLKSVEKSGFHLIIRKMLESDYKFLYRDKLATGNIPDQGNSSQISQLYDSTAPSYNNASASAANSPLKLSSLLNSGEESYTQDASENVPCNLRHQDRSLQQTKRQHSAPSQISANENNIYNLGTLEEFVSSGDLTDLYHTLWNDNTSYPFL
Assay: PBM E-score (8-mer binding enrichment) (E-score (-0.5 to 0.5)); higher = stronger / more preferred TF binding
Settings: protein concentration: 200 nM; construct: GST-full length
In all, about 33,000 sequences were measured (“E-score (-0.5 to 0.5)”: median about -0.035, highest 2% from about 0.35 on). The list comes from a sample in which the highest values are over-represented; it also holds close analogues and randomly drawn sequences.
The reader will find reported PBM E-score values listed item by item below.

Completed entries (count: 5):
      chain          system_tested  measured_parameter  result
0  AAACTCTT  Pdr3 (UniProt P33200)         PBM E-score  -0.264
1  CGCCGGAC  Pdr3 (UniProt P33200)         PBM E-score   0.316
2  CATTCCTC  Pdr3 (UniProt P33200)         PBM E-score  0.0812
3  AATAGCGC  Pdr3 (UniProt P33200)         PBM E-score  0.0976
4  TCGGAACA  Pdr3 (UniProt P33200)         PBM E-score   0.483

Data request: Which PBM E-score is listed for "CGTTCCAA" ?
Data returned: -0.0612

Data request: Which PBM E-score is listed for "CACCGTCA" ?
Data returned: 0.00596

Data request: Which PBM E-score is listed for "ATGGAACA" ?
Data returned: -0.0996

Data request: Which PBM E-score is listed for "GAGGAACA" ?
Data returned: 0.147

Data request: Which PBM E-score is listed for "ATGTTATC" ?
Data returned: 0.0774

Data request: Which PBM E-score is listed for "ACACAGGG" ?
Data returned: 0.0204

Data request: Which PBM E-score is listed for "GCGGAACA" ?
Data returned: 0.474

----------
Biological target: Pdr3 (UniProt P33200)
Sequence: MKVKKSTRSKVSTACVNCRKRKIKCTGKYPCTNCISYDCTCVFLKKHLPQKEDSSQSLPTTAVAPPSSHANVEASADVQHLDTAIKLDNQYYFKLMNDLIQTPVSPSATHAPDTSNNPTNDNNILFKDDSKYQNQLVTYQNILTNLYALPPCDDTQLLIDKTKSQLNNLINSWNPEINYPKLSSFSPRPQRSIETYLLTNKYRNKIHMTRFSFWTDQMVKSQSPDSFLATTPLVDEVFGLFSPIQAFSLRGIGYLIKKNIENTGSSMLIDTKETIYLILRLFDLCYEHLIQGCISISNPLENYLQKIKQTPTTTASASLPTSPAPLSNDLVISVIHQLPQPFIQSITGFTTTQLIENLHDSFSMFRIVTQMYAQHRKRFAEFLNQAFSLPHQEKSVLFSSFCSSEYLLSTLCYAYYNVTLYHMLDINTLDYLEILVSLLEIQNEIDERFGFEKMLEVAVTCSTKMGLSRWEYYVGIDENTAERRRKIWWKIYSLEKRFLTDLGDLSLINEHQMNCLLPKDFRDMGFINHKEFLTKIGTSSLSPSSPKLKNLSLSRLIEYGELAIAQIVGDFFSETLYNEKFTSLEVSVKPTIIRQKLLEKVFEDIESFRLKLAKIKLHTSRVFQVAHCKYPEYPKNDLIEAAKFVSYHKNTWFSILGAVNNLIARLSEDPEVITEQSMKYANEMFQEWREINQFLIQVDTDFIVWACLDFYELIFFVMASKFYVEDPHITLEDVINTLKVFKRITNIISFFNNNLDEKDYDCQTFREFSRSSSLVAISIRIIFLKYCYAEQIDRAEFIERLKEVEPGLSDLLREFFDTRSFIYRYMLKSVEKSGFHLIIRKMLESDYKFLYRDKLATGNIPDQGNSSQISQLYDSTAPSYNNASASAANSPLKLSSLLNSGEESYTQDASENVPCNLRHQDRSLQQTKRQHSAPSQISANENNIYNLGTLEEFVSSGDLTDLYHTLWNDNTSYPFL
Assay: PBM E-score (8-mer binding enrichment) (E-score (-0.5 to 0.5)); higher = stronger / more preferred TF binding
Settings: protein concentration: 200 nM; construct: GST-full length
In all, about 33,000 sequences were measured (“E-score (-0.5 to 0.5)”: median about -0.035, highest 2% from about 0.35 on). Only a selection was taken, and the highest values are over-represented in it overall.
The reader will find reported PBM E-score values listed item by item below.
Note: the reply should be a number with no unit written.

Completed entries (count: 7):
>>> print(df.to_string())
      chain  quantitative_readout
0  CGGAATCC                 0.461
1  AAACGGAC                 0.189
2  CCAGCCTA                -0.182
3  CCCCGGAA                 0.421
4  CCCCCGAG               -0.0658
5  GCAGCAAA                -0.103
6  AACAGCTT                 0.048

// next entry
Data request: Which PBM E-score is listed for "AGTGATCA" ?
Data returned: -0.0706
